target: BuChE from equine serum (Equus caballus); construct: BuChE from equine serum (Merck, Darmstadt, Germany); purchased Merck, Darmstadt, Germany; host or cells: equine serum; assay: biochemical; conditions: BuChE inhibitory activity IC50, single alkaloids and reference galanthamine
Sequence (P81908 whole entry): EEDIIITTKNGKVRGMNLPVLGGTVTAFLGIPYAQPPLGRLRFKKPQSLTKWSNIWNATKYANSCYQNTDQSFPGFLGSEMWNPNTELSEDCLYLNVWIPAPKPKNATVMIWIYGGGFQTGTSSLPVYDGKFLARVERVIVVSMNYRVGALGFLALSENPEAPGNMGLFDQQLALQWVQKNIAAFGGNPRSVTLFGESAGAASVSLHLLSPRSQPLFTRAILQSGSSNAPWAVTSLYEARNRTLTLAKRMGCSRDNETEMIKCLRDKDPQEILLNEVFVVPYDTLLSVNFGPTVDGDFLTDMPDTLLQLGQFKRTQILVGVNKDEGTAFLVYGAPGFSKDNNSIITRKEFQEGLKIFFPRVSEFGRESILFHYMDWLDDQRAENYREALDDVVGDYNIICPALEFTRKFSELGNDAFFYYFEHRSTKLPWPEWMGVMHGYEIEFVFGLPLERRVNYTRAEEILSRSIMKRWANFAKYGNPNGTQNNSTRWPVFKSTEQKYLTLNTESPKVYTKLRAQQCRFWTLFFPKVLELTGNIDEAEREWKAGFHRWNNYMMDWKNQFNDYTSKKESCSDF

MOLECULE: COc1cc2c(cc1O)CN1CC[C@@]23C=C[C@@H](O)C[C@H]13 [8-O-demethylmaritidine (16), 8-O-demethylmaritidine]
IC50: 468 µM
--
MOLECULE: COc1cc2c(cc1O)C13CCC(O)CC1N(CC3)C2 (stereo not shown) [deacetylcantabricine (17), deacetylcantabricine]
IC50: > 726 µM
--
MOLECULE: COC1C=CC23c4cc5c(cc4CN(CC2O)C3C1)OCO5 (stereo not shown) [haemanthamine (18a), haemanthamine]
IC50: > 664 µM
--
MOLECULE: O[C@H]1[C@H]2c3cc4c(cc3CN3CCC(=C[C@@H]1O)[C@H]23)OCO4 [lycorine (9), lycorine]
IC50: > 696 µM
